Assay: cytotoxicity in HEK293T cells, dose response, cytotoxicity control, cell-based, CellTiter-Glo luminescence, dry powder (AID 743481)
Conditions: HEK293T viability, ATP luminescence, 72 h; at 26 µM (top of the series)
Task for the reader: assign each of the following compounds its reported activity change, negative = cytotoxicity.
One number for each entry, in %.

Example compounds with recorded activity change, negative = cytotoxicity:
INSERT INTO results (given_smiles, observed_property, unit_text, test_result) VALUES
  ('C[C@H](CO)N1C[C@H](C)[C@H](CN(C)C(=O)Nc2cccc3ccccc23)OCCCC[C@H](C)Oc2ccc(NC(=O)c3ccccc3)cc2C1=O', 'activity change, negative = cytotoxicity', '%', -8.78),
  ('C[C@H](CO)N1C[C@H](C)[C@H](CN(C)C(=O)Nc2ccc3ccccc3c2)OCCCC[C@H](C)Oc2ccc(NC(=O)C3CCCCC3)cc2C1=O', 'activity change, negative = cytotoxicity', '%', 7.21),
  ('C[C@H](CO)N1C[C@H](C)[C@H](CN(C)C(=O)Nc2cccc(F)c2)OCCCC[C@H](C)Oc2ccc(NC(=O)C3CCCCC3)cc2C1=O', 'activity change, negative = cytotoxicity', '%', 9.35);

List activity change, negative = cytotoxicity for every entry below, keeping the order given.
1. C[C@@H]1CCCCO[C@@H](CN(C)C(=O)Nc2cccc3ccccc23)[C@H](C)CN([C@H](C)CO)C(=O)c2cc(NC(=O)C3CCCCC3)ccc2O1
2. C[C@H](CO)N1C[C@H](C)[C@H](CN(C)C(=O)Nc2cccc3ccccc23)OCCCC[C@H](C)Oc2ccc(NC(=O)C3CCCCC3)cc2C1=O

1. -11.7
2. -4.95

List activity change, negative = cytotoxicity for every entry below, keeping the order given.
1. C[C@H](CO)N1C[C@H](C)[C@H](CN(C)C(=O)Nc2ccc(F)cc2)OCCCC[C@H](C)Oc2ccc(NC(=O)C3CCC3)cc2C1=O
2. C[C@H](CO)N1C[C@H](C)[C@H](CN(C)C(=O)Nc2ccc(Cl)cc2)OCCCC[C@H](C)Oc2ccc(NC(=O)C3CCCCC3)cc2C1=O
3. C[C@H](CO)N1C[C@H](C)[C@H](CN(C)C(=O)Nc2ccccc2)OCCCC[C@H](C)Oc2ccc(NC(=O)Nc3ccccc3)cc2C1=O
4. C[C@H](CO)N1C[C@H](C)[C@@H](CN(C)C(=O)Nc2cccc3ccccc23)OCCCC[C@H](C)Oc2ccc(NC(=O)C3CCCCC3)cc2C1=O
5. C[C@@H]1CCCCO[C@H](CN(C)C(=O)Nc2cccc3ccccc23)[C@@H](C)CN([C@H](C)CO)C(=O)c2cc(NC(=O)C3CCCCC3)ccc2O1
6. C[C@@H]1CCCCO[C@@H](CN(C)C(=O)Nc2cccc3ccccc23)[C@@H](C)CN([C@@H](C)CO)C(=O)c2cc(NC(=O)C3CCCCC3)ccc2O1
7. C[C@H]1CCCCO[C@@H](CN(C)C(=O)Nc2ccc(F)cc2)[C@@H](C)CN([C@@H](C)CO)C(=O)c2cc(NC(=O)C3CCCCC3)ccc2O1
8. C[C@H](CO)N1C[C@H](C)[C@H](CN(C)C(=O)Nc2ccc3c(c2)OCO3)OCCCC[C@H](C)Oc2ccc(NC(=O)C3CCCCC3)cc2C1=O

1. -3.85
2. -12.5
3. 0.603
4. -7.19
5. -3.68
6. -16.3
7. -15.6
8. 2.78
